Data credit: PubChem BioAssay

# EXPERIMENTAL_SYSTEM: Follistatin-related protein 3 (Homo sapiens) (UniProt O95633)
# Sequence (O95633 whole entry, looked up): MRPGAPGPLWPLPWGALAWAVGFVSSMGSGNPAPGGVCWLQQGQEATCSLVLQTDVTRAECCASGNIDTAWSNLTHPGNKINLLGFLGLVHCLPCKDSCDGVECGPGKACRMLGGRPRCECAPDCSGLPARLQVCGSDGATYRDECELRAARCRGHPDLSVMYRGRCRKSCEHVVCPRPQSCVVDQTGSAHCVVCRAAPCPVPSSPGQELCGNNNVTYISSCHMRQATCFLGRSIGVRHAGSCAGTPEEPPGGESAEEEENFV
# METHOD_NOTES: FSTL3 binders on small-molecule microarrays, primary screen, biochemical, small-molecule microarray, 635 nm fluorescence (AID 1105);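 further: score merges emission near 667 nm and signal to noise per printed spot across three slides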
# ASSAY_CONDITIONS: FSTL3 binding, higher = more signal
Record t whenever composite z-score is at 0.7 or higher; record f when lower.

{"columns": ["COMPOUND", "EXPERIMENTAL_SYSTEM", "GROUP_LABEL"],
 "data": [
  ["[N-]=[N+]=NCc1ccccc1C[C@]1(C(N)=O)N=C(c2ccc(OCCCO)cc2)O[C@H]1c1ccccc1", "Follistatin-related protein 3 (Homo sapiens) (UniProt O95633)", "f"],
  ["C[C@]1(C(=O)NC2CC2)c2ccccc2C(=O)N(Cc2ccccc2)[C@H]1c1ccc(CO)cc1", "Follistatin-related protein 3 (Homo sapiens) (UniProt O95633)", "f"],
  ["C=C(/C(=C/C[C@H](OC(=O)c1ccncc1)c1ccc(CO)o1)c1cc(C(=O)OC)ccc1OC)C(C)C", "Follistatin-related protein 3 (Homo sapiens) (UniProt O95633)", "t"],
  ["COC(=O)c1c2oc(c1C(=O)OC)C(=O)N(Cc1ccccc1)Cc1cn(nn1)C[C@H](Cc1ccccc1)NC(=O)N[C@H](CO)CC2", "Follistatin-related protein 3 (Homo sapiens) (UniProt O95633)", "f"],
  ["COc1ccc(CCNC(=O)[C@@]2(Sc3ccc(C)cc3)CC(=O)N(C3Cc4ccccc4C3)[C@@H]2c2ccc(CO)cc2)cc1", "Follistatin-related protein 3 (Homo sapiens) (UniProt O95633)", "t"],
  ["O=C1OCC=C[C@H]2OC34C=CCN(Cn5nnc6ccccc65)C(=O)[C@H]3N(CCCO)C(=O)[C@@H]4[C@@H]12 (stereo partly specified)", "Follistatin-related protein 3 (Homo sapiens) (UniProt O95633)", "f"],
  ["C=CCC(OC(C)=O)[C@@H]1[C@@H](N(Cc2cc3ccccc3o2)C(=O)Cc2ccc(F)cc2)c2cc(OCCCO)ccc2N1C(=O)c1ccc2ccccc2c1 (stereo partly specified)", "Follistatin-related protein 3 (Homo sapiens) (UniProt O95633)", "f"],
  ["COc1ccc([Si](C)(C)[C@@H]2[C@@H](CC(=O)N3Cc4ccccc4C[C@H]3CO)O[C@]3(C(=O)N(C)c4ccccc43)[C@H]2C)cc1", "Follistatin-related protein 3 (Homo sapiens) (UniProt O95633)", "t"],
  ["C=C(C)[C@@H]1CC=C(C(O)C2C=CC3C(=O)N(c4ccccc4)C(=O)C3N2Nc2ccccc2F)CC1 (stereo partly specified)", "Follistatin-related protein 3 (Homo sapiens) (UniProt O95633)", "t"],
  ["CC(C)N1C(=O)c2ccccc2[C@@H](C(=O)NC2CC2)[C@@H]1c1ccc(CO)cc1", "Follistatin-related protein 3 (Homo sapiens) (UniProt O95633)", "f"],
  ["CC(C)C(=C=CC[C@H](O)c1cccc(OCCO)c1)C[C@H](O)c1cc(Cl)cc(Cl)c1O", "Follistatin-related protein 3 (Homo sapiens) (UniProt O95633)", "f"],
  ["O=C1C2C=CC(C(O)c3ccc(Br)cc3)N(Nc3ccccc3F)C2C(=O)N1c1ccccc1 (stereo unspecified)", "Follistatin-related protein 3 (Homo sapiens) (UniProt O95633)", "f"],
  ["N#Cc1ccc(C(O)C2C=CC3C(=O)N(c4ccccc4)C(=O)C3N2Nc2ccccc2)cc1 (stereo unspecified)", "Follistatin-related protein 3 (Homo sapiens) (UniProt O95633)", "f"],
  ["COC(=O)[C@@]1(Cc2ccccc2)[C@H]2c3cc(C(=O)N(C)C)n(Cc4c(CO)[nH]cc(C)c4=O)c3C[C@H]2CN1C(=O)c1ccccc1", "Follistatin-related protein 3 (Homo sapiens) (UniProt O95633)", "f"],
  ["O=C(NCC(F)(F)F)[C@@H]1c2ccccc2C(=O)N(Cc2cc(F)cc(C(F)(F)F)c2)[C@H]1c1ccc(CO)cc1", "Follistatin-related protein 3 (Homo sapiens) (UniProt O95633)", "f"],
  ["COc1cc2c(cc1OC)CN(C(=O)[C@@H]1[C@H]3C(=O)O[C@H](c4ccccc4)[C@H](c4ccccc4)N3[C@H](c3ccc(OCCO)cc3)[C@@]13C(=O)Nc1ccc(C#CC4(O)CCCCCC4)cc13)CC2", "Follistatin-related protein 3 (Homo sapiens) (UniProt O95633)", "t"],
  ["COc1ccccc1CN1C(=O)c2ccccc2[C@](Cc2ccccc2I)(C(=O)NCC(F)(F)F)[C@@H]1c1ccc(CO)cc1", "Follistatin-related protein 3 (Homo sapiens) (UniProt O95633)", "t"],
  ["C=C(C)C1CCC(C(O)C2C=CC3C(=O)N(C)C(=O)C3N2N2CCCCC2)CC1 (stereo unspecified)", "Follistatin-related protein 3 (Homo sapiens) (UniProt O95633)", "t"],
  ["NC(N)=NCCCn1cc(CNC(=O)[C@@H](N)Cc2ccccc2)nn1", "Follistatin-related protein 3 (Homo sapiens) (UniProt O95633)", "t"],
  ["CO[C@]12C=C(Br)[C@@H](C[C@@H]1c1cccc(C)c1)[C@@]1(CO1)C2=O", "Follistatin-related protein 3 (Homo sapiens) (UniProt O95633)", "f"],
  ["O=C1c2ccccc2[C@](Cc2ccccc2I)(C(=O)NCC(F)(F)F)[C@H](c2ccc(CO)cc2)N1C1CCCCC1", "Follistatin-related protein 3 (Homo sapiens) (UniProt O95633)", "f"],
  ["COc1cc2c(cc1OC)CN(C(=O)[C@@H]1[C@H]3C(=O)O[C@H](c4ccccc4)[C@H](c4ccccc4)N3[C@H](c3ccc(OCCO)cc3)[C@@]13C(=O)Nc1ccccc13)CC2", "Follistatin-related protein 3 (Homo sapiens) (UniProt O95633)", "t"],
  ["NCCCCCNC(=O)[C@@H]1C[C@@H]2C(=O)NCC(=O)N2[C@@H]1c1cccc(OCCO)c1", "Follistatin-related protein 3 (Homo sapiens) (UniProt O95633)", "f"],
  ["Cc1ccc(S[C@]2(C(=O)NCCCN(C)C)CC(=O)N(C3CCCCC3)[C@@H]2c2ccc(CO)cc2)cc1", "Follistatin-related protein 3 (Homo sapiens) (UniProt O95633)", "f"],
  ["COC(=O)C1=CC(CCCO)=CC(C2CC2)N(C)C=C1C(=O)OC (stereo unspecified)", "Follistatin-related protein 3 (Homo sapiens) (UniProt O95633)", "f"],
  ["COCCOC(=O)N1C(=O)[C@@]2(c3cc(C#CC4=CCCCC4)ccc31)[C@H](c1ccccc1OCCO)N1[C@H](c3ccccc3)[C@H](c3ccccc3)OC(=O)[C@H]1[C@@H]2C(=O)N1CCCCCCC1", "Follistatin-related protein 3 (Homo sapiens) (UniProt O95633)", "t"],
  ["CCOC(=O)C1CCCCN1 (stereo unspecified)", "Follistatin-related protein 3 (Homo sapiens) (UniProt O95633)", "f"],
  ["CCOC(=O)c1ccc(NC(=O)O[C@H]2[C@H](OC(=O)Nc3ccc4c(c3)OCO4)[C@@H](OC(=O)Nc3ccc4c(c3)OCO4)[C@@H](OC)O[C@@H]2CO)cc1", "Follistatin-related protein 3 (Homo sapiens) (UniProt O95633)", "t"],
  ["OCC1CC(c2ccccc2)=NO1 (stereo unspecified)", "Follistatin-related protein 3 (Homo sapiens) (UniProt O95633)", "f"],
  ["COC(=O)c1ccc([C@H](NC(=O)c2ccco2)[C@]2(C)C[C@H]2C2CCCCC2)cc1", "Follistatin-related protein 3 (Homo sapiens) (UniProt O95633)", "f"],
  ["CCCCCCCCCCC(O)C1C=CC2C(=O)N(C)C(=O)C2N1NC(=O)OC(C)(C)C (stereo unspecified)", "Follistatin-related protein 3 (Homo sapiens) (UniProt O95633)", "f"]
]}
